Molecular target: HSP47 (Canis lupus familiaris)
Sequence (C7C419 entry or part of it): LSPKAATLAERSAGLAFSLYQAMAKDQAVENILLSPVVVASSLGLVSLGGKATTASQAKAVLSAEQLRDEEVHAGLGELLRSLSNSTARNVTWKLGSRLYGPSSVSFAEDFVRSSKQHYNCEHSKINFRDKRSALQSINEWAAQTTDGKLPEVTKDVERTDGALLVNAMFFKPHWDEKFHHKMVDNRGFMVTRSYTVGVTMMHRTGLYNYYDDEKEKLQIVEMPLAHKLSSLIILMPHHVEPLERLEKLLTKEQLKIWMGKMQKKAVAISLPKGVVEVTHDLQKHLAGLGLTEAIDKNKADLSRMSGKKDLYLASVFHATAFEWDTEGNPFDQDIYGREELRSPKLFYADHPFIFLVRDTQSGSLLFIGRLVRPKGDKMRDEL
Settings: Fig. 1C; CMP coated 500 ng/well, HSP47 1:4 dilution series from 8 or 10 μM, anti-His-HRP/TMB read-out; four-parameter logistic fit; triplicates
MEASURE: Kd (nM)
Just the number in nM, nothing appended.

Challenge: Can you look up Kd on HSP47 (Canis lupus familiaris) for GPRGPP ?
Response given: 36

###

Molecular target: HSP47 (Canis lupus familiaris)
Conditions: read-out: KD determined by curve fittings; Fig. 1D; CMP coated 500 ng/well, HSP47 1:4 dilution series from 8 or 10 μM, anti-His-HRP/TMB read-out; four-parameter logistic fit; triplicates
Assignment: determine reported Kd for the given substances.
Entry format: amount then unit.

Challenge: Can you look up Kd on HSP47 (Canis lupus familiaris) for GARGLP ?
Response given: 24.1 nM

Challenge: Can you look up Kd on HSP47 (Canis lupus familiaris) for GPRGFP ?
Response given: 12 nM
